B1: SNX8 (parent)
chain: LHQETQLIHVYLPLTSHILRAFVN

variants of: B1; assay: protein stability index of a GFP-peptide fusion (GPS, HEK-293T) (PSI 1-6); higher = more stable; conditions: c terminus: a fixed tail appended;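 further: lentivirally expressed fusions sorted by FACS into six bins by GFP to DsRed ratio, PSI derived from sequencing read proportions per bin multiplied by bin number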
Returns one of Satisfied or Not satisfied; Satisfied when protein stability index is >= 3.

Known results for variants:
{"mutant code": "Q6P", "group": "Not satisfied"}
{"mutant code": "T5A", "group": "Not satisfied"}

# input Could you verify whether the entry "L7D" shows protein stability index of no less than 3?
# output Not satisfied

# input And the next one, "Y11L" ?
# output Not satisfied

# input What about "L19F" ?
# output Satisfied

# input And "L19I" ?
# output Satisfied

# input Same question for "T5N" please.
# output Satisfied

# input Next entry: "H17C"
# output Not satisfied

# input Entry "S16V" please
# output Not satisfied
